- assay.overview: gradient 5% acetonitrile 3 min, to 50% in 2 min, to 85% in 15 min, held 3 min, 100 µL/min
- run.parameters: column: Zorbax Extend-C18 2.1 x 50 mm; eluents: water / acetonitrile, 0.1% formic acid

>  <molecule>
CCCCS(=O)(=O)c1cc2c(cc1NC(=O)c1c(F)cccc1F)n(C)c(=O)n2C

>  <RP-LC retention time (s)>
800

$$$$
>  <molecule>
COc1ccc(NC(=O)CSc2nccc(N3CCN(c4cc(C)ccc4C)CC3)n2)c(OC)c1

>  <RP-LC retention time (s)>
980

$$$$
>  <molecule>
O=C(Cn1nc2c(SCc3ccc(Cl)cc3)nccn2c1=O)N1CCN(c2ccccc2)CC1

>  <RP-LC retention time (s)>
1040

$$$$
>  <molecule>
Cc1ccc2c(c1)N(CCCC(=O)N1CCN(c3cc(=O)n(C)c(=O)n3C)CC1)C(=O)CO2

>  <RP-LC retention time (s)>
700

$$$$
>  <molecule>
Cc1ccc(N2C(=O)C3N=NN(Cc4nc(-c5ccccc5Cl)no4)C3C2=O)cc1 (centres undefined)

>  <RP-LC retention time (s)>
996

$$$$
>  <molecule>
O=c1c2nc(-c3ccc(F)cc3F)cn2ccn1-c1ccc(Cl)cc1

>  <RP-LC retention time (s)>
921

$$$$
>  <molecule>
CC(C)n1cnc(S(=O)(=O)N2CCCC(C(=O)N3CCN(c4ccccn4)CC3)C2)c1 (centres undefined)

>  <RP-LC retention time (s)>
581

$$$$
>  <molecule>
COCC(C)(O)CNC(=O)C(=O)NCc1ccc(C)cc1 (centres undefined)

>  <RP-LC retention time (s)>
674

$$$$
>  <molecule>
Cc1cc(C)n(Cc2nc(-c3ccc(NC(=O)c4ccco4)cc3)oc2C)n1

>  <RP-LC retention time (s)>
818

$$$$
